- measuredTarget: HPK1 (Homo sapiens)
- Sequence (Q92918 whole entry): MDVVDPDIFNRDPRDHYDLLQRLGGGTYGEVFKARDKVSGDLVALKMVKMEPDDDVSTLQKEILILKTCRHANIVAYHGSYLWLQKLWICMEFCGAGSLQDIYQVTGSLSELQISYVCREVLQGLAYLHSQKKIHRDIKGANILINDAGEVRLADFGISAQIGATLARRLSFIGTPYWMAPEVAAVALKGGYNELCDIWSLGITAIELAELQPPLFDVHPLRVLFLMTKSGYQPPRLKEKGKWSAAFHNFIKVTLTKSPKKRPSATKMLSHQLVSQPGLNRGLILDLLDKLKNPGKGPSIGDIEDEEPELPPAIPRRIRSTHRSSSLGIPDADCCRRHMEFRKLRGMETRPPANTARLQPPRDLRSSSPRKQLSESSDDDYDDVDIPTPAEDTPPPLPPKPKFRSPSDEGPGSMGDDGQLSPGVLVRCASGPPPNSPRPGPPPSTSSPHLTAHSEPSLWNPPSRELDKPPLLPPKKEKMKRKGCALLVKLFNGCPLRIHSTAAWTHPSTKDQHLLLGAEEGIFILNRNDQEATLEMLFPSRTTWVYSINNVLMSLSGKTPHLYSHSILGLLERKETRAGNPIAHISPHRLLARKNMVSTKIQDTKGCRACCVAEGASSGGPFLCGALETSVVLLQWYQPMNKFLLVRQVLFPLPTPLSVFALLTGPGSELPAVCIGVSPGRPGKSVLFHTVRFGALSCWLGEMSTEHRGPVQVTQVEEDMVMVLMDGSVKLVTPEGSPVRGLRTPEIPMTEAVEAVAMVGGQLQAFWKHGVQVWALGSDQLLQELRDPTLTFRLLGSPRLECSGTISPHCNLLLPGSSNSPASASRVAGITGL
- protocolDescription: HPK1 biochemical assay (ADP-GLO Kinase Assay)
- conditionDetails: B*: testing performed in a first testing facility; read-out: HPK1 IC50 (nM) Relative, B*
The entries below are paired with their reported IC50.

Notebook: COc1cc2c(cc1Nc1ncc(Cl)c(N3CC(C)(CC(=O)O)c4ccccc43)n1)CN(C)CC2 (single isomer, unassigned) [Example 148] , IC50 read as ≤ 100 nM

----------
- measuredTarget: JAK3 (Homo sapiens, UniProt P52333)
- Construct: purchased Thermo fisher PV3855
- Sequence (P52333 781-1124 limits assumed): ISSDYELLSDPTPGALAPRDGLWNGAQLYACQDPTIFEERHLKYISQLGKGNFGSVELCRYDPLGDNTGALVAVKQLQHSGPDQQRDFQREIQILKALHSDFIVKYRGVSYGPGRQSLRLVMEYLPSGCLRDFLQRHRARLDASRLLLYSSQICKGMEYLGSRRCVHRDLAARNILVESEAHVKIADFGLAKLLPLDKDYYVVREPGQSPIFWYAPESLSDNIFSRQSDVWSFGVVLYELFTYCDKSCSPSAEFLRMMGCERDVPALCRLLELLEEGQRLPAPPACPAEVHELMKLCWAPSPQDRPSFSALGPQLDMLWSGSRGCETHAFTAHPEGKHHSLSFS
- protocolDescription: JAK3 biochemical assay (ADP-GLO Kinase Assay)
- conditionDetails: ratio of JAK3 IC50 to HPK1 IC50; first testing facility
readout: JAKs/HPK1 IC50 Ratio, B*

P: COc1cc2c(cc1Nc1ncc(Cl)c(-n3cc(CC#N)c4ccccc43)n1)CN(C)CC2 [Example 134]
Q: CCc1c[nH]c2ncc(-c3ccc(F)c(P(C)(C)=O)c3N)cc12 [Example 60]
R: COc1cc2c(cc1Nc1ncc(Cl)c(-n3nc(CC(=O)O)c4ccccc43)n1)CN(C)CC2 [Example 141]
Could you arrange the 3 compounds above by JAKs/HPK1 IC50 Ratio, B*, starting with the largest number? Response field: labels, in requested order.
R, P, Q
